test system: CAOV3; assay: Primary qHTS to identify gynecologic anti-cancer compounds using libraries of approved drugs and bioactive compounds (AID 1345084); conditions: Gynecologic cancer cell panel viability, ATPlite luminescence, 48 h; series mostly up to 57.5 µM; also: % is scaled to controls: 0 for no effect and ±100 for the full control effect; nearly all actives have a fitted effect of over 55% in size
Inconclusive results are not listed. The source made the active and inactive calls. Calls follow the shape of the dose curve; as a rule, active = well fitted cell-killing curve with a large enough effect; inconclusive = small, poorly fitted or top-dose-only effect, or effect the other way; inactive = flat fitted curve, though single readings scatter.

- MOLECULE: "C[C@@H]1O[C@@H](O[C@H]2[C@H](OC(=O)[C@]34CCC(C)(C)C[C@H]3C3=CCC5[C@@]6(C)CC[C@H](O[C@@H]7O[C@H](CO[C@@H]8OC[C@H](O)[C@H](O)[C@H]8O[C@@H]8OC[C@@H](O)[C@H](O)[C@H]8O)[C@@H](O)[C@H](O)[C@H]7O)C(C)(C)C6CC[C@@]5(C)[C@]3(C)C[C@H]4O)O[C@H](CO)[C@@H](O)[C@@H]2O)[C@H](O[C@@H]2O[C@H](CO)[C@@H](O)[C@H](O)[C@H]2O)[C@H](O)[C@H]1O[C@@H]1OC[C@@H](O)[C@H](O[C@@H]2OC[C@@H](O)[C@H](O)[C@H]2O)[C@H]1O (some centres undefined)"
  TEST SYSTEM: "CAOV3"
  activity change, negative = cytotoxicity: "-0.37% [at 6.55 µM] (inactive)"
- MOLECULE: "CC1(C)CCC2(C(=O)O)C(O)CC3(C)C(=CCC4C5(C)CCC(OC6OC(CO)C(O)C(O)C6OC6OC(CO)C(O)C(O)C6OC6OCC(O)(CO)C6O)C(C)(C)C5CCC43C)C2C1 (centres undefined)"
  TEST SYSTEM: "CAOV3"
  activity change, negative = cytotoxicity: "12.3% [at 11.6 µM] (inactive)"
- MOLECULE: "C=C1CC[C@@]2(OC1)O[C@H]1CC3[C@@H]4CC=C5C[C@@H](O)C[C@@H](O[C@@H]6OC[C@H](O)[C@H](O)[C@H]6O[C@@H]6O[C@@H](C)[C@H](O)[C@@H](O)[C@H]6O)[C@]5(C)C4CC[C@]3(C)[C@H]1[C@@H]2C (some centres undefined)"
  TEST SYSTEM: "CAOV3"
  activity change, negative = cytotoxicity: "inactive"
- MOLECULE: "CC(O)C/C=C/C=C/C(=O)OC1C=C2COC(=O)C2(O)C2(C)CCCC(C)(C)C12 (centres undefined)"
  TEST SYSTEM: "CAOV3"
  activity change, negative = cytotoxicity: "inactive"

----------
Test system: PA-1
Experiment: Primary qHTS to identify gynecologic anti-cancer compounds using libraries of approved drugs and bioactive compounds (AID 1345084); also: % is scaled to controls: 0 for no effect and ±100 for the full control effect; nearly all actives have a fitted effect of over 55% in size
Conditions: Gynecologic cancer cell panel viability, ATPlite luminescence, 48 h; series mostly up to 57.5 µM
From the text: National Center for Advancing Translational Sciences [NCATS] Assay Overview: Chemotherapeutic drug responses vary from cancer to cancer and from patient to patient. […] ATPlite is a luminescence based assay reliant on the conversion of a luciferase substrate to light in the presence of ATP. As a cytotoxic compound will suppress growth and decrease the number of cells, the concentration of ATP will decrease, and less light signal will be detected in the well. […]
Records with an inconclusive call do not appear. Active and inactive are the calls of the source. Calls come from the whole dose curve; as a rule, active = well fitted cell-killing curve with a large enough effect; inconclusive = small, poorly fitted or top-dose-only effect, or effect the other way; inactive = flat fitted curve, though single readings scatter.
ASSAY METRIC: activity change, negative = cytotoxicity

These solved cases illustrate the format of a correct answer.
- COMPOUND: "CC(O)C/C=C/C=C/C(=O)OC1C=C2COC(=O)C2(O)C2(C)CCCC(C)(C)C12 (centres undefined)"
  TEST SYSTEM: "PA-1"
  activity change, negative = cytotoxicity: "inactive"
- COMPOUND: "CCOC(=O)c1ccc(NC2CCCCC2)c(N)c1"
  TEST SYSTEM: "PA-1"
  activity change, negative = cytotoxicity: "inactive"
- COMPOUND: "CC(=O)c1c(C)cccc1O[C@@H]1O[C@H](CO)[C@@H](O)[C@H](O)[C@H]1O"
  TEST SYSTEM: "PA-1"
  activity change, negative = cytotoxicity: "inactive"
- COMPOUND: "COc1cc(C2Oc3c(OC)cc(/C=C/C(=O)OC4CC(O)(C(=O)O)CC(O)C4O)cc3C2CO)ccc1O (centres undefined)"
  TEST SYSTEM: "PA-1"
  activity change, negative = cytotoxicity: "inactive"
- COMPOUND: "CC(C)[C@@](O)(c1ccc2cc(OC(F)F)c(OC(F)F)cc2c1)c1cn[nH]n1"
  TEST SYSTEM: "PA-1"
  activity change, negative = cytotoxicity: "inactive"

input: Please give the measured activity change, negative = cytotoxicity for this compound: Cc1ccccc1NC(=O)Nc1ccc(CN2C(=O)N([C@@H](CC(C)C)C(=O)N[C@@H](CC(=O)O)c3ccccc3)C(=O)C2(C)C)cc1
output: inactive

input: One more compound: COC(=O)Cn1nc(-c2cccc(OC)c2)c2ccccc21
output: inactive

input: What about CC(C)c1cc2c(c(O)c1O)[C@@]13CCCC(C)(C)C1[C@@H](O)[C@@H]2OC3=O (some centres undefined) ?
output: inactive

input: Next record, please: CC1(C)C[C@@H]2[C@H](C1)[C@@]1(C)C[C@]13C(O)OC[C@]3(O)[C@H]2O (some centres undefined)
output: inactive
